Tested on: field strains (Francevilloises strains)
Assay: In vitro inhibition of parasite proliferation (3[H] hypoxanthine incorporation), field strains
Format: cell-based, Plasmodium falciparum
Settings: Plasmodium falciparum, read-out: ID 50, Strain No. 823
pIC50: −log10 of the molar value.
measured-quantity: pIC50

GET /values?readout=pIC50&item= CCN(CC)CCCC(C)Nc1ccnc2cc(Cl)ccc12 (stereo not shown) < 5.00

---

Tested on: field strains (Francevilloises strains)
Test: In vitro inhibition of parasite proliferation (3[H] hypoxanthine incorporation), field strains
Type: cell-based, Plasmodium falciparum
Conditions: Plasmodium falciparum, Strain No. 265
measured-quantity: IC50

GET /values?readout=IC50&item= CCN(CC)CCCC(C)Nc1ccnc2cc(Cl)ccc12 (stereo not shown) > 1000 nM

---

Test system: field strains (Francevilloises strains)
Experiment: In vitro inhibition of parasite proliferation (3[H] hypoxanthine incorporation), field strains
Type: cell-based, Plasmodium falciparum
Details: Plasmodium falciparum, Strain No. 926
measured-quantity: IC50

GET /values?readout=IC50&item= CCN(CC)CCCC(C)Nc1ccnc2cc(Cl)ccc12 (stereo not shown) [Chloroquinine] > 1000 nM

---

System: field strains (Francevilloises strains)
Assay: In vitro inhibition of parasite proliferation (3[H] hypoxanthine incorporation), field strains
Assay type: cell-based, Plasmodium falciparum
Conditions: Strain No. 823; read-out: IC50
measured-quantity: pIC50
// pIC50 is dimensionless: -log10 of concentration (M)

GET /values?readout=pIC50&item= CN(C)Cc1ccc[c-]1CNc1ccnc2cc(Cl)ccc12.[Fe+2].c1cc[cH-]c1 (stereo not shown) 6.92

The measurements presented in this section are drawn from patent US6127543A.
